Some binders, each annotated with its measured CDC % Relative activity.
# measurementTarget: human Claudin18.2 (human)
# measurementNotes: cell-based or functional assay
Provide the reading as a plain figure in %.

binder	CDC % Relative activity, %
423B2B5 (antibody, V domains shown) VH: DVQLVESGGGLVQPGGSRKLSCAASGFTFSSFGMHWVRQAPEKGLEWVAYISSGSSPIYYSDTVKGRFTISRDNPKNTLFLQMSSLRSEDTAMYFCARIYYGNSFDHWGQGTLVTVSA VL: DIVMTQSPSSLTVTAGEKVTMNCKSSQSLLNSGNQKNYLTWYQQKPGQPPKLLIYWASTRESGVPDRFTGSGSGTDFTLTISSVQAEDLAVYYCQNDYSYPLTFGAGTKLELK	6.38
420F12G8 (antibody, V domains shown) VH: DVQLVESGGGLVQPGGSRKLSCAASGFAFSGFGMHWIRQTPEKGLEWVAYISSGSRPIYYADTVKGRFTISRDNPKNTLFLQMTSLRSEDTAMYFCVRFYYGNSFDHWGQGTLVTVSA VL: DIVMTQSPSFLTVTAGEKVTMTCRSSQNLLNSGNQKNYLTWYQQKPGQPPKLLISWASTRESGVPDRFTGSGSGTDFTLTISSVQPEDLALYYCQNAYSFPFTFGAGTKLELK	52.6

Next binder, CDC % Relative activity to be filled in.
What value of CDC % Relative activity has been reported for the following binder? 410A9A9 (antibody, V domains shown) VH: DVQLVESGGGLVQPGGSRKLSCAASGFTFSSFGMHWVRQAPEKGLEWVAYISSGSSPIYYADTVKGRFTISRDNPKNTLFLQMTSLRSEDTAMYFCATFYYGNSFAYWGQGTLVTVSA VL: DIVMTQSPSSLTVTAGEKVTMSCKSSQTLLNSGNQKNYLTWYQQKSGQPPKLLIYWASTRESGVPDRFTGSGSGTDFTLTISSVQAEDLAVYYCQNAYSYPVTFGSGTKVELK
300
